molecular target: CDK2 (human)
measuredEndpoint: pIC50
One number for each entry, as −log10 of the molar value.

stdin: For the compound N[C@H]1CC[C@H](Nc2nc(Nc3ccccc3)c3ncn(C4CCCC4)c3n2)CC1 , give its reported pIC50.
stdout: 8.27
